Experiment: qHTS assay to identify small molecule antagonists of the sonic hedgehog signaling (Shh) pathway (AID 1259369); also: nearly all actives have a fitted effect of over 45% in size
Conditions: NIH/3T3 Gli1-Luc reporter, Shh antagonist, luminescence 24 h; series mostly up to 92.4 µM
Results filed as inconclusive are left out. Activity calls are given as the source filed them. Calls follow the shape of the full dose curve.
# output must be one of active, inactive

Returns: the outcome recorded for O=C(O)C1(C(=O)O)CCC1.[NH2-].[NH2-].[Pt+2] in this assay. inactive

Returns: the outcome recorded for C/C=C/C(=O)CC in this assay. active

Returns: the outcome recorded for CC(=O)[O][Al] in this assay. inactive

Returns: the outcome recorded for CN(C)c1ccc(C(c2ccccc2)c2ccc(N(C)C)cc2)cc1 in this assay. active

Returns: the outcome recorded for C[C@H]1C[C@H]2[C@@H]3CCC4=CC(=O)C=C[C@]4(C)[C@@]3(Cl)[C@@H](O)C[C@]2(C)[C@@]1(O)C(=O)CO in this assay. inactive

Returns: the outcome recorded for CCCCCCc1ccc(-c2ccc(C#N)cc2)cc1 in this assay. inactive

###

Assay: qHTS assay to identify small molecule antagonists of the sonic hedgehog signaling (Shh) pathway - cell viability counter screen (AID 1259367); also: nearly all actives have a fitted effect of over 55% in size; also: potency is read from the fitted curve at half-maximal effect
Details: NIH/3T3 Gli1-Luc viability, CellTiter-Fluor, 24 h; series mostly up to 92.4 µM
Inconclusive results are not listed. The source made the active and inactive calls. Calls follow the shape of the dose curve; as a rule, active = well fitted cell-killing curve with a large enough effect in the repeat runs; inconclusive = weak or mixed curves, or effect the other way; inactive = no such curve, though single readings can be large or run the other way.
Result Type: Potency

Example cases with answers are listed next.
[[record]]
compound = "COC(C)OC"
measured = "inactive"

[[record]]
compound = "CN(C)CCN(Cc1ccccc1)c1ccccn1"
measured = "inactive"

[[record]]
compound = "C1CCCNCCC1"
measured = "inactive"

[[record]]
compound = "CCCCCCCN"
measured = "inactive"

[[record]]
compound = "CCOc1ccc(N=Nc2ccc(/C=C/c3ccc(N=Nc4ccc(OCC)cc4)cc3S(=O)(=O)O)c(S(=O)(=O)O)c2)cc1"
measured = "21.4 µM (active)"

[[record]]
compound = "Nc1cccc([N+](=O)[O-])c1"
measured = "inactive"

[[record]]
compound = "C=C1C(=C/C=C2\\CCC[C@]3(C)[C@@H]([C@H](C)/C=C/[C@@H](O)C4CC4)CC[C@@H]23)C[C@@H](O)C[C@@H]1O"
measured = "inactive"

[[record]]
compound = "CCN(CC)CCOC(=O)C(Cc1cccc2ccccc12)CC1CCCO1 (configuration not stated)"
measured = "inactive"


The reported Potency of the compound C=C(C)C(=O)OCCO was inactive

The reported Potency of the compound O=C1CCCCCCCCCCCC(=O)OCCO1 was inactive

The reported Potency of the compound Nc1ccc([N+](=O)[O-])c(C(F)(F)F)c1 was inactive

The reported Potency of the compound CN1CCC(=C2c3ccccc3Sc3ccccc32)CC1 was inactive

The reported Potency of the compound CC(=O)[O][Al][O]C(C)=O was inactive

The reported Potency of the compound CCOc1ccc(O)cc1 was inactive

The reported Potency of the compound Cc1oc(-c2ccccc2)nc1CCOc1cccc2c1ccn2CCC(=O)O was 6.86 µM (active)

The reported Potency of the compound CO[C@@H]1[C@H](OC(=O)/C=C/C=C/C=C/C=C/C(=O)O)CC[C@]2(CO2)[C@H]1[C@@]1(C)O[C@@H]1CC=C(C)C was inactive

The reported Potency of the compound COc1ccc(S(=O)(=O)N2C(=O)[C@@](c3ccccc3OC)(N3C[C@H](O)C[C@H]3C(=O)N(C)C)c3cc(Cl)ccc32)c(OC)c1 was 9.69 µM (active)

The reported Potency of the compound CC(C)O.CC(C)O.CCOC(=O)/C=C(\C)O.CCOC(=O)/C=C(\C)O.[Ti] was inactive

The reported Potency of the compound O=C(CS)Nc1ccccc1 was inactive

The reported Potency of the compound CCCCc1ncc(/C=C(\Cc2cccs2)C(=O)O)n1Cc1ccc(C(=O)O)cc1 was inactive

###

Assay: qHTS assay to test for compound auto fluorescence at 535 nm (green) in HepG2 cell free culture (AID 720686); also: % is scaled to controls: 0 for no effect and ±100 for the full control effect
Details: Cell-free medium, green autofluorescence 485/535 nm; series mostly up to 91.3 µM
Description: U.S. Tox21 Program National Center for Advancing Translational Sciences [NCATS] NIH Chemical Genomics Center [NCGC] U.S. Environmental Protection Agency [EPA] National Institutes of Environmental Health Sciences [NIEHS] National Toxicology Program [NTP] U.S. Food and Drug Administration [FDA] Tox21 Assay Overview: Compound auto fluorescence often interferes with screening of the compound library against various biological targets and signaling pathways. […] This assay includes the green fluorescence data. […]
Calls of active or inactive are those of the source. The call rests on the fitted dose curve; in most records, active means well fitted curve in the direction sought with a large enough effect in the repeat runs; inconclusive means weak or mixed curves; inactive means flat fitted curve, though single readings scatter.
Result Type: fluorescence, % of fluorescein control

Example cases with answers are listed next.
[[record]]
smiles_representation = "CC(=O)c1ccc2c(c1)N(CCCN(C)C)c1ccccc1S2"
measured = "-0.0543% [at 18.6 µM] (inactive)"

[[record]]
smiles_representation = "O=[N+]([O-])c1ccc(NCCO)c(OCCO)c1"
measured = "inactive"

[[record]]
smiles_representation = "CCCCNc1ccc(C(=O)OCCOCCOCCOCCOCCOCCOCCOCCOCCOC)cc1"
measured = "-0.018% [at 18.6 µM] (inactive)"

[[record]]
smiles_representation = "CCOc1ccc(O)cc1"
measured = "inactive"

[[record]]
smiles_representation = "Cc1c(N)cccc1[N+](=O)[O-]"
measured = "inactive"


Turning to the following molecule.
The reported fluorescence, % of fluorescein control of the molecule CC(=O)OC[C@H]1O[C@@H](n2ncc(=O)[nH]c2=O)[C@H](OC(C)=O)[C@@H]1OC(C)=O was inactive

###

Target: Nuclear receptor subfamily 1 group I member 2 (Homo sapiens) (UniProt O75469)
Sequence (O75469 whole entry, looked up): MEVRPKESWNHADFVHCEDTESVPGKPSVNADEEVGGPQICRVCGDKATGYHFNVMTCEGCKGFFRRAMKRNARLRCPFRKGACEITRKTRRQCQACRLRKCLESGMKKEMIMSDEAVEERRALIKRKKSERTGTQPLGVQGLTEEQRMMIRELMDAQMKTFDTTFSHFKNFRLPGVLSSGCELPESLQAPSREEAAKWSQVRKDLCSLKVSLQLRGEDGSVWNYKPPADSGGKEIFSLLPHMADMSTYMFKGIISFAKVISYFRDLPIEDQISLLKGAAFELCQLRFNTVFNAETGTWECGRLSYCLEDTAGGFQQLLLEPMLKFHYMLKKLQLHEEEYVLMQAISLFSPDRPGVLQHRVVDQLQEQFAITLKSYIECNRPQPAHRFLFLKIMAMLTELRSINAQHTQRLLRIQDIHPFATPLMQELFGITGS
Experiment: Human pregnane X receptor (PXR) small molecule agonists, qHTS assay (AID 1346982); also: nearly all actives have a fitted effect of over 35% in size; as to activation: % is scaled to controls: 0 for no effect and ±100 for the full control effect
Conditions: PXR-Luc HepG2, CYP3A4 luciferase reporter, 24 h; series mostly up to 92.4 µM
Records with an inconclusive call do not appear. Activity calls are given as the source filed them. The call rests on the fitted dose curve; in most records, active means well fitted activation curve with a large enough effect in the repeat runs; inconclusive means weak or mixed curves; inactive means no such curve, though single readings can be large or run the other way.
# output must be one of active, inactive

Returns: the outcome recorded for C=C1C(=C/C=C2\CCC[C@]3(C)[C@@H]([C@H](C)/C=C/[C@@H](O)C4CC4)CC[C@@H]23)C[C@@H](O)C[C@@H]1O in this assay. active

Returns: the outcome recorded for O=C(CS)Nc1ccccc1 in this assay. inactive

Returns: the outcome recorded for Nc1ncn([C@H]2C[C@H](O)[C@@H](CO)O2)c(=O)n1 in this assay. inactive

Returns: the outcome recorded for CCCCCCCCCCCCCCCCOS(=O)(=O)O in this assay. inactive

Returns: the outcome recorded for O=C(O)C1(C(=O)Nc2ccc(Cl)cc2Cl)CC1 in this assay. active

Returns: the outcome recorded for O=C(O)c1ccccc1Cl in this assay. inactive

Returns: the outcome recorded for O=C1C(O)=C(O)C(=O)C(O)=C1O in this assay. inactive

###

Experiment: qHTS assay to identify small molecule antagonists of the estrogen related receptor (ERR) signaling pathway (AID 1224819; also: nearly all actives have a fitted effect of over 50% in size)
Conditions: ERR reporter cell line, luciferase inhibition; series mostly up to 46.1 µM
Results filed as inconclusive are left out. Active and inactive are the calls of the source. Calls follow the shape of the dose curve; as a rule, active = well fitted inhibition curve with a large enough effect in the repeat runs; inconclusive = weak or mixed curves; inactive = no such curve, though single readings can be large or run the other way.
# output must be one of active, inactive

Returns: the outcome recorded for COc1cc(C(=O)OCCCN2CCCN(CCCOC(=O)c3cc(OC)c(OC)c(OC)c3)CC2)cc(OC)c1OC in this assay. inactive

Returns: the outcome recorded for c1ccc(-c2ccccn2)nc1 in this assay. inactive

Returns: the outcome recorded for NC(N)=NCCC[C@H](N)C(=O)O in this assay. inactive

Returns: the outcome recorded for CC(C)C[C@H]1C(=O)N2CCC[C@H]2[C@]2(O)O[C@](NC(=O)[C@@H]3C=C4c5cccc6[nH]c(Br)c(c56)C[C@H]4N(C)C3)(C(C)C)C(=O)N12 in this assay. active

###

Assay: qHTS assay to identify small molecule agonists of the androgen receptor (AR) signaling pathway in the presence of an antagonist - cell viability counter screen (AID 1259379); also: nearly all actives have a fitted effect of over 25% in size
Conditions: MDA-kb2 viability, CellTiter-Fluor, 16 h; series mostly up to 92.4 µM
Description: National Center for Advancing Translational Sciences [NCATS] NIH Chemical Genomics Center [NCGC] U.S. Environmental Protection Agency [EPA] National Institutes of Environmental Health Sciences [NIEHS] National Toxicology Program [NTP] U.S. Food and Drug Administration [FDA] Androgen receptor (AR) is an important member of nuclear receptor family. Its signaling plays a critical role in AR-dependent prostate cancer and other androgen related diseases. […]
Inconclusive results are not listed. Calls of active or inactive are those of the source. Calls come from the whole dose curve; as a rule, active = well fitted cell-killing curve with a large enough effect in the repeat runs; inconclusive = weak or mixed curves, or effect the other way; inactive = flat fitted curve, though single readings scatter.
# output must be one of active, inactive

Returns: the outcome recorded for CCCn1cnc2c1c(=O)n(CCCCC(C)=O)c(=O)n2C in this assay. inactive

Returns: the outcome recorded for CN1CCC(=C2c3ccccc3Sc3ccccc32)CC1 in this assay. inactive

Returns: the outcome recorded for O=C(Cl)c1cc(C(=O)Cl)cc(C(=O)Cl)c1 in this assay. inactive

Returns: the outcome recorded for S=C([S-])NCCNC(=S)[S-].[Mn+2] in this assay. inactive

Returns: the outcome recorded for C[C@@H]1C[C@H]2[C@@H]3CCC4=CC(=O)C=C[C@]4(C)[C@@]3(F)[C@@H](O)C[C@]2(C)[C@@]1(O)C(=O)COC(=O)c1ccncc1 in this assay. inactive

Returns: the outcome recorded for CCCCCCCCCOS(=O)(=O)O in this assay. inactive

Returns: the outcome recorded for COc1ccc(S(=O)(=O)N2C(=O)[C@@](c3ccccc3OC)(N3C[C@H](O)C[C@H]3C(=O)N(C)C)c3cc(Cl)ccc32)c(OC)c1 in this assay. active

Returns: the outcome recorded for CCCCCCCN in this assay. inactive

Returns: the outcome recorded for CCCCc1ncc(/C=C(\Cc2cccs2)C(=O)O)n1Cc1ccc(C(=O)O)cc1 in this assay. inactive

Returns: the outcome recorded for CCN(CC)CCOC(=O)C(c1ccccc1)C1CCCCC1 (stereo unspecified) in this assay. inactive

Returns: the outcome recorded for COc1ccc(C(=O)c2ccc(OC)cc2O)c(O)c1 in this assay. inactive
